# Assay target: UniProt P29375
# Sequence (P29375 whole entry): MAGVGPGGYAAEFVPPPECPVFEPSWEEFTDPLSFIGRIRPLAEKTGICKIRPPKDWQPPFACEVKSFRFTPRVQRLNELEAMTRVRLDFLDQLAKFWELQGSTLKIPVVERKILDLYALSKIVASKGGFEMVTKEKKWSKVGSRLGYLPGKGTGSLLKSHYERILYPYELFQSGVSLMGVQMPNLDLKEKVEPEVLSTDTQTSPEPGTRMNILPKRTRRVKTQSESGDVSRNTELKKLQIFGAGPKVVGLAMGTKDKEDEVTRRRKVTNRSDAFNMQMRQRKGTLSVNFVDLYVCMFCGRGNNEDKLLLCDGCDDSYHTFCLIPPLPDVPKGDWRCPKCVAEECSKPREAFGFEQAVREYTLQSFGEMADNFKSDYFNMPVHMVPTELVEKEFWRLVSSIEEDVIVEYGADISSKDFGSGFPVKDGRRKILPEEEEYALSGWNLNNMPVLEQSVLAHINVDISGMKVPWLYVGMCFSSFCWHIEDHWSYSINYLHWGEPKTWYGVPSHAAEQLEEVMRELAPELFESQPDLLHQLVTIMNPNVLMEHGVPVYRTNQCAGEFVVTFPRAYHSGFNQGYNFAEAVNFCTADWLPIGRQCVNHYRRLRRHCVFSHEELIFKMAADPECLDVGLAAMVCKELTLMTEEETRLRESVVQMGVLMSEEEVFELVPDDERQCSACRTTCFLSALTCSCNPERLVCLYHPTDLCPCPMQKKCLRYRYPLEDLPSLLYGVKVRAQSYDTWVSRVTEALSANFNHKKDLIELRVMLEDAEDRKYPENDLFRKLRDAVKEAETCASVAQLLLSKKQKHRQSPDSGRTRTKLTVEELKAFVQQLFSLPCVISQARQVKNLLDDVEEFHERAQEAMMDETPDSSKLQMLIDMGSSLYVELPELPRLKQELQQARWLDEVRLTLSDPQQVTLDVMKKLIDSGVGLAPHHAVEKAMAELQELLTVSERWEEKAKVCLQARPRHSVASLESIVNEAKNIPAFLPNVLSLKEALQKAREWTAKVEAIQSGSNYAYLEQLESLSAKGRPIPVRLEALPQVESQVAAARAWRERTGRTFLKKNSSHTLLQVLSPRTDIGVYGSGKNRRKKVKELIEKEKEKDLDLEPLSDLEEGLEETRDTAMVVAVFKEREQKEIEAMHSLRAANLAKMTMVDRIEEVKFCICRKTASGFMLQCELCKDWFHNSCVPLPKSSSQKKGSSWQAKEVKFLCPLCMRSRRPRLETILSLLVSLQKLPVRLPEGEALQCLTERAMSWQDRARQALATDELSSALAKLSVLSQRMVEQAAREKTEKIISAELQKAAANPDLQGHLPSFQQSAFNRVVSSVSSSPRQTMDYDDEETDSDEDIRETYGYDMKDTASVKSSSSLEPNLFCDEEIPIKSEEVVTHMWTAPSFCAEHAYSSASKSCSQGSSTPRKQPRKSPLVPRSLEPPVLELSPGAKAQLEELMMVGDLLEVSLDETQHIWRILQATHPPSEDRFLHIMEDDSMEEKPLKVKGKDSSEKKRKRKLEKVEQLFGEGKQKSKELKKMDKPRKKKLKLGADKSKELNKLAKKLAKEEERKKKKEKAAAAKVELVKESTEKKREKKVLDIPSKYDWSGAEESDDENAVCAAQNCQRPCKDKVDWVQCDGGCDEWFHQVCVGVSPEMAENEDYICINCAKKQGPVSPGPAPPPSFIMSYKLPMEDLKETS
Quantity: IC50 (nM)
Write the number in nM without appending the unit.

-- ask Kindly indicate its recorded IC50. Item: C=CCn1c(S)nnc1CNC(=O)c1cccc(C)c1
-- reply 1320

====

# Assay target: FLAG-KDM6B (1043-1682) (JMJD3) (Homo sapiens, UniProt O15054)
# Sequence (O15054 1043-1682 isoform O15054-1): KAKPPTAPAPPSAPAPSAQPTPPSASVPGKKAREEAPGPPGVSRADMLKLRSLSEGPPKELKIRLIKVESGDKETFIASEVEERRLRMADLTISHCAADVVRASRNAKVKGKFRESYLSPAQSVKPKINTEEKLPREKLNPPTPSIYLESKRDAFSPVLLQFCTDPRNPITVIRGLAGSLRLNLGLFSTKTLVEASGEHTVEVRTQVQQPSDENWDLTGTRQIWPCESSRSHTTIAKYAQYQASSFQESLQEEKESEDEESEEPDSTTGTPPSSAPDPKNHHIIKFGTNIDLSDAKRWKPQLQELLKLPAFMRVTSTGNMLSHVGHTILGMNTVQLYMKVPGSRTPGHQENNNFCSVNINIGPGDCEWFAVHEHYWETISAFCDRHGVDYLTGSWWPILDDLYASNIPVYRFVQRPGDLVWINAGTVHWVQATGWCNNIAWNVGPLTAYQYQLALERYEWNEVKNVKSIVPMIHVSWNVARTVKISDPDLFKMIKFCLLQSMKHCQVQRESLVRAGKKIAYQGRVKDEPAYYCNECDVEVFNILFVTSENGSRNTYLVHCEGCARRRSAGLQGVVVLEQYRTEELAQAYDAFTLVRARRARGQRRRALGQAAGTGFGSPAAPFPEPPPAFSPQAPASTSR
Quantity: IC50

-- ask Kindly indicate its recorded IC50. Item: C=CCn1c(S)nnc1CNC(=O)c1cccc(C)c1
-- reply > 50 µM

====

# Assay target: FLAG-KDM5C (Homo sapiens, UniProt P41229)
# Construct: Full-length FLAG-KDM5B, FLAG-KDM5C, and His-FLAG-KDM6A production was detailed previously; FLAG (N)
# Sequence (P41229 whole entry): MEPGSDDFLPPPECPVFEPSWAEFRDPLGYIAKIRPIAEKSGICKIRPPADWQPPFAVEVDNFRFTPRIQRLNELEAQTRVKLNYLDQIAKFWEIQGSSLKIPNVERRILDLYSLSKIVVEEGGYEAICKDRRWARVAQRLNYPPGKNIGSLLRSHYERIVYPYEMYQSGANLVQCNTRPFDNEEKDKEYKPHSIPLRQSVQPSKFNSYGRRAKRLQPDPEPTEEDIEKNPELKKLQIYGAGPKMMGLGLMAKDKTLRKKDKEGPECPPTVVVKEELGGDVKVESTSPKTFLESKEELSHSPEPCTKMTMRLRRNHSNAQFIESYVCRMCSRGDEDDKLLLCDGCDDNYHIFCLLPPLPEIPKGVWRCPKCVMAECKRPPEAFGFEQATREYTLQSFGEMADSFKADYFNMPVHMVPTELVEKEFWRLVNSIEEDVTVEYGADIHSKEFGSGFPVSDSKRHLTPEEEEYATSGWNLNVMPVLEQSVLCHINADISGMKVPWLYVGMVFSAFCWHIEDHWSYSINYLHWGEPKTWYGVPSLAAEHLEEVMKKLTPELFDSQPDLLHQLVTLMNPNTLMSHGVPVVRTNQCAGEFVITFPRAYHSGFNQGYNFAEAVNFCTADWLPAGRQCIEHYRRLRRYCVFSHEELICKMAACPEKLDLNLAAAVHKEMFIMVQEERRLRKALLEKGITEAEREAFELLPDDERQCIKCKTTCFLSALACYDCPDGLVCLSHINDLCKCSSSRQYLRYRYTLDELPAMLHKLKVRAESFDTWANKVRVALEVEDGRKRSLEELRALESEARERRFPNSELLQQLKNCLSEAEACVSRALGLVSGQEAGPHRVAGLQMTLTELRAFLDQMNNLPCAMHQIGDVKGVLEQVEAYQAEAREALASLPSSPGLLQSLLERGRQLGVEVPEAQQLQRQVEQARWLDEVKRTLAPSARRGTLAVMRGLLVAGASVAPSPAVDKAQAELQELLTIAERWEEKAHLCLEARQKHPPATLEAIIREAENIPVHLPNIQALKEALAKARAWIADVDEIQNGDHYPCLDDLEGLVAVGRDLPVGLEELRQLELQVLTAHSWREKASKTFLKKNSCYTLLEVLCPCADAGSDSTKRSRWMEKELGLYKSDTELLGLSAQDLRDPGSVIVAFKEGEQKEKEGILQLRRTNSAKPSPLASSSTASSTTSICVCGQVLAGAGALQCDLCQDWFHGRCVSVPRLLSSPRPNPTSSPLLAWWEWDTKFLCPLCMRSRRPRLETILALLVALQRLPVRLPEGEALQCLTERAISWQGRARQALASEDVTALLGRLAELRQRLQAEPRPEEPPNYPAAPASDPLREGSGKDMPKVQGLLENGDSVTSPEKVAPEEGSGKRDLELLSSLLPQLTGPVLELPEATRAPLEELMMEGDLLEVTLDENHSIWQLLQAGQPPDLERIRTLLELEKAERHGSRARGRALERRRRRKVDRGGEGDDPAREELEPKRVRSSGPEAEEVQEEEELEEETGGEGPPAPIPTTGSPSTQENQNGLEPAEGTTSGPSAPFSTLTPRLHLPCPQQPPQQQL
# Method: AlphaScreen KDM5C demethylation assay
# Test settings: AlphaScreen
Here, each record is paired with measured pIC50 data.
The read-out pIC50 is expressed as -log10 of concentration in moles per litre.

- Compound: "C=CCn1c(S)nnc1CNC(=O)c1cccc(C)c1 [YUKA2]"
  pIC50: 5.18

Note: attention shifts to another entry.
-- ask Kindly indicate its recorded pIC50. Item: C=CCOc1c(CNn2cnnc2S)cccc1OC [YUKA1]
-- reply 5.15
